experiment: qHTS assay to identify small molecule agonists of the retinoic acid receptor (RAR) signaling pathway (AID 1159553); settings: C3RL4 RARE luciferase reporter, agonist, 6 h; series mostly up to 73.3 µM
Results filed as inconclusive are left out. Activity calls are given as the source filed them. Calls come from the whole dose curve; as a rule, active = well fitted activation curve with a large enough effect in the repeat runs; inconclusive = weak or mixed curves, or effect the other way; inactive = no such curve, though single readings can be large or run the other way.
Response enum: t (active), f (inactive)

Solved entries (count: 6):
- O=C(C(=O)c1ccc(Br)cc1)c1ccc(Br)cc1: f
- O=C(CCN1CCN2CCCC2C1)N1c2ccccc2Sc2ccc(Cl)cc21 (stereo not drawn): f
- CC(C)CC=O: f
- Nc1ccc(C(=O)N2CC3CC(CN(Cc4ccccc4)C3)C2)cc1: f
- CCCCCCCCCO: f
- CN1CCC(=C2c3ccccc3C=Cc3ccccc32)CC1: f

# input # outcome recorded in this test, key = O=C(O)Cn1c(C(=O)Nc2nc(-c3ccccc3Cl)cs2)cc2ccccc21
# output f
